Counter-ions that a name gives are not always drawn.
Record type: pIC50 measurement. Applies to: Acetylcholinesterase (Electrophorus electricus, UniProt O42275)
Please report pIC50 as the negative decimal logarithm of the molar concentration, giving only the number.

>>> value_measured("COc1cc2c(cc1O)C[N@+]1(C)CCc3cc(OC)c(OC)cc3[C@@H]1C2")
5.08
>>> value_measured("COc1cc2c(cc1OC)[C@@H]1Cc3ccc(O)c(OC)c3C=[N+]1CC2")
4.51
>>> value_measured("COc1cc2c[n+]3c(cc2cc1O)-c1cc(OC)c(OC)cc1CC3 [DEHYDROCORYTENCHINE TRIFLUOROACETATE]")
4.01
>>> value_measured("COc1c(O)c2c3c(c1OC)-c1cc4c(cc1C[C@@H]3NCC2)OCO4")
4.11
>>> value_measured("COc1cc2c(cc1O)C=[N+]1CCc3cc(OC)c(OC)cc3[C@@H]1C2")
3.81

Prompt line: Request body: readout pIC50, system Acetylcholinesterase (Electrophorus electricus, UniProt O42275), query COc1ccc(C[C@H]2c3cc(O)c(OC)cc3CCN2C)cc1O . Return the value.
Response line: 4.14

Prompt line: Lab note: need pIC50 for COc1c(O)c2c3c(c1OC)-c1ccccc1C[C@H]3NCC2 on Acetylcholinesterase (Electrophorus electricus, UniProt O42275), anyone have it?
Response line: 3.96

Prompt line: Please tell me: pIC50 of COc1cccc2c1C(=O)c1c(C)cc(=O)[nH]c1C2=O , system Acetylcholinesterase (Electrophorus electricus, UniProt O42275)?
Response line: 4.63

* * *

Target or system Acetylcholinesterase (Electrophorus electricus): recorded IC50 listed per item.

>>> value_measured("COc1cc2ccnc3c2c(c1OC)-c1cc2c(cc1C3=O)OCO2")
"> 150 µM"
>>> value_measured("O[C@@H]1c2ccccc2-c2c3c(cc4c2[C@H]1NCC4)OCO3")
"> 126 µM"

Now examine the next entry.
Prompt line: IC50 lookup needed for O=C1c2ccccc2-c2c3c(cc4ccnc1c24)OCO3 , thanks.
Response line: > 150 µM
